- Tested on: MCF7 breast
- assay_notes: NCI tumour cell line growth inhibition, 48 h
Exercise: state measured TGI for each of the compounds provided.

According to the records, this compound CCOP(=O)(C/C=C/Cn1ncc(=O)[nH]c1=O)OCC displays TGI of > 100 µM

According to the records, this compound O=C(Sc1c(-c2ccccc2)c(=O)n(-c2ccccc2)c(=S)n1-c1ccccc1)c1ccccc1 displays TGI of > 100 µM

According to the records, this compound CC(=O)OCC1(C)C(O)CCC2(C)C1CCC1CC3CC12CCC3(O)CO (stereo unspecified) displays TGI of > 100 µM

According to the records, this compound C[C@@H](Nc1cc(F)cc(F)c1)c1cc(C(=O)N(C)C)cc2c(=O)cc(N3CCOCC3)oc12 displays TGI of 99 µM

According to the records, this compound CC[C@@H](C)/C=C(C)/C=C/C(=O)c1c(O)c(-c2ccc(OC(=O)[C@@]34CC[C@@](C)(C(=O)O3)C4(C)C)cc2)cn(O)c1=O displays TGI of > 50 µM

According to the records, this compound CN1CCC2(CC1)N=C(SCC(=O)Nc1cnc3ccccc3c1)C(c1ccc(Br)cc1)=N2 displays TGI of 3.55 µM

According to the records, this compound Cc1cc(N2CCOCC2)nc2ccc(Cc3ccc4nc(N5CCOCC5)cc(C)c4c3)cc12 displays TGI of > 100 µM

According to the records, this compound CN1CCC2(c3ccccc3)CC(=O)/C(=C/c3ccc(Cl)c(Cl)c3)C1C2 (stereo unspecified) displays TGI of 17.3 µM

According to the records, this compound COc1ccc(OC)c(Nc2nc3nonc3nc2Nc2cccc(Br)c2)c1 displays TGI of > 100 µM

According to the records, this compound O=Cc1ccc2ccocc1-2 displays TGI of > 100 µM

According to the records, this compound COC(=O)c1cc(CC2Cc3cc4c(cc3C2=O)CCC4)cc2c1CCC2 (stereo unspecified) displays TGI of > 100 µM
